assay: Pharmacokinetics in SD rats after oral administration of FA extract, NA, NHE or NA-NHE (UPLC-MS/MS of plasma, DAS 3.1); type: in vivo, Sprague-Dawley (SD) rats; conditions: Sprague-Dawley, rat; male SD rats, oral FA extract 10.8 g/kg of the original medicinal material; plasma after β-glucuronidase/sulfatase hydrolysis; statistical moment parameters; n = 6
So basically, if Cmax comes in under 100 ng/mL it's y, and if it's 100 ng/mL or more it's n.

- compound: "O=C1C[C@@H](c2ccc(O)cc2)Oc2cc(O)cc(O)c21 [Naringenin, naringenin]"
  class-name: "n"
- compound: "COc1ccc(-c2cc(=O)c3c(OC)c(OC)c(OC)c(OC)c3o2)cc1OC [Nobiletin, nobiletin]"
  class-name: "n"
- compound: "COc1ccc2ccc(=O)oc2c1CC(O)C(C)(C)O (centres unmarked) [Meranzin hydrate, meranzin hydrate]"
  class-name: "n"

[in] Cmax strictly < 100 ng/mL for this compound? COc1ccc2ccc(=O)oc2c1CC1OC1(C)C (centres unmarked) [Meranzin, meranzin]
[out] y

[in] I wonder whether COc1ccc([C@@H]2CC(=O)c3c(O)cc(O)cc3O2)cc1O [Hesperetin, hesperetin] has Cmax below 100 ng/mL. Can you tell?
[out] n

###

test: Pharmacokinetics in SD rats after oral administration of FA extract, NA, NHE or NA-NHE (UPLC-MS/MS of plasma, DAS 3.1); assay type: in vivo, Sprague-Dawley (SD) rats; details: Sprague-Dawley, rat, plasma; male SD rats, oral FA extract 10.8 g/kg of the original medicinal material; statistical moment parameters; n = 6; read-out: MRT(0-t)
Mark 0.0 for MRT last values under 5 h, and 1.0 for everything at or above.

- compound: "COc1ccc2ccc(=O)oc2c1CC(O)C(C)(C)O (centres unmarked) [Meranzin hydrate, meranzin hydrate]"
  class-name: 1.0
- compound: "COc1ccc(-c2cc(=O)c3c(OC)c(OC)c(OC)c(OC)c3o2)cc1OC"
  class-name: 0.0
- compound: "COc1ccc([C@@H]2CC(=O)c3c(O)cc(O)cc3O2)cc1O"
  class-name: 1.0
- compound: "O=C1C[C@@H](c2ccc(O)cc2)Oc2cc(O)cc(O)c21"
  class-name: 1.0

Continue with the compound presented below.
[in] Please check the record COc1ccc2ccc(=O)oc2c1CC1OC1(C)C (centres unmarked) and state if its MRT last is at or above 5 h.
[out] 0.0

###

For each entry below, report its V1/F value.
test: Pharmacokinetics in SD rats after oral administration of FA extract, NA, NHE or NA-NHE (UPLC-MS/MS of plasma, DAS 3.1); assay type: in vivo, Sprague-Dawley (SD) rats; conditions: male SD rats, oral FA extract 10.8 g/kg of the original medicinal material; two-compartment model parameters; n = 6
Answers are plain numbers, in L/kg.

For orientation, consider the following solved cases.
- compound: "COc1ccc2ccc(=O)oc2c1CC1OC1(C)C (stereo not shown) [Meranzin, meranzin]"
  parameter: "V1/F"
  assay-result: 5.91
- compound: "COc1ccc([C@@H]2CC(=O)c3c(O)cc(O)cc3O2)cc1O [Hesperetin, hesperetin]"
  parameter: "V1/F"
  assay-result: 7.17
- compound: "C[C@@H]1O[C@@H](O[C@H]2[C@H](Oc3cc(O)c4c(c3)O[C@H](c3ccc(O)cc3)CC4=O)O[C@H](CO)[C@@H](O)[C@@H]2O)[C@H](O)[C@H](O)[C@H]1O [NA, naringin]"
  parameter: "V1/F"
  assay-result: 0.82

[in] For the compound O=C1C[C@@H](c2ccc(O)cc2)Oc2cc(O)cc(O)c21 [Naringenin, naringenin] , what V1/F is on record?
[out] 0.82

Taken from paper PMC7319089.
